Experiment: Measurement of solubility (shaking at 37° C., UHPLC)
Assay type: physicochemical
Details: JP1 solution (sodium chloride/hydrochloric acid in water), 37 °C, pH 1.2, simulated gastric fluid, thermodynamic from solid, JP1 (pH about 1.2), shaking at 37° C. for 24 hours; read-out: Solubility JP1
measured-property: solubility at 24 h

INSERT INTO results (item_smiles, meas_value) VALUES
  ('CCN([C@H]1CC[C@H](C(=O)O)CC1)S(=O)(=O)c1cccc(C(=O)Nc2ccc(N3CCCCC3)cc2C(=O)Nc2ccc(CCc3ccc(C(=O)O)cc3)cc2)c1', '1.4 µg/mL');

----------
Assay: Measurement of solubility (shaking at 37° C., UHPLC)
Type: physicochemical
Conditions: diluted McIlvaine buffer pH 7.5, 37 °C, pH 7.5, aqueous buffer, thermodynamic from solid, diluted McIlvaine buffer pH 7.5, shaking at 37° C. for 30 minutes; read-out: Solubility Mc pH 7.5
measured-property: solubility at 30 min (µg/mL)

INSERT INTO assay_data (molecule, measured_property, output_unit, meas_value) VALUES
  ('CCN([C@H]1CC[C@H](C(=O)O)CC1)S(=O)(=O)c1cccc(C(=O)Nc2ccc(N3CCCCC3)cc2C(=O)Nc2ccc(CCc3ccc(C(=O)O)cc3)cc2)c1 [Example 7]', 'solubility at 30 min', 'µg/mL', 639);
